Source: ChEMBL document CHEMBL3745652

test: Apparent permeability from basolateral to apical side in human Caco2 cells; assay type: ADME, cell-based; details: caco-2
Reported Metric: Papp (×10⁻⁶ cm/s)

1) O=[N+]([O-])c1cn2c(n1)OC[C@@H](OCc1ccc(N3CCOCC3)c(F)c1)C2 :: 33.28
2) O=C1CCCCN1c1ccc(CO[C@@H]2COc3nc([N+](=O)[O-])cn3C2)cc1F :: 30.45
3) O=C1CCCCN1c1ccc(CO[C@@H]2COc3nc([N+](=O)[O-])cn3C2)cn1 :: 29.56
4) O=[N+]([O-])c1cn2c(n1)OC[C@@H](OCc1ccc(OC(F)(F)F)cc1)C2 :: 13.14
5) O=C1COCCN1c1ccc(CO[C@@H]2COc3nc([N+](=O)[O-])cn3C2)cn1 :: 23.82
6) O=[N+]([O-])c1cn2c(n1)OC[C@@H](OCc1ccc(N3CCOCC3)cc1)C2 :: 32.25
7) O=C1COCCN1c1ccc(CO[C@@H]2COc3nc([N+](=O)[O-])cn3C2)cc1 :: 30.56
8) O=C1CSCCN1c1ccc(CO[C@@H]2COc3nc([N+](=O)[O-])cn3C2)cn1 :: 31.44
9) O=[N+]([O-])c1cn2c(n1)OC[C@@H](OCc1ccc(N3CCOCC3)nc1)C2 :: 27.63

---

assay: Plasma protein binding in human; assay type: ADME, cell-free
Reported Metric: PPB (%)

1) CC(=O)NC[C@H]1CN(c2ccc(N3CCOCC3)c(F)c2)C(=O)O1 [LINEZOLID] :: 17.8
2) O=C1COCCN1c1ccc(CO[C@@H]2COc3nc([N+](=O)[O-])cn3C2)cn1 :: 27.9
3) O=[N+]([O-])c1cn2c(n1)OC[C@@H](OCc1ccc(N3CCOCC3)nc1)C2 :: 14.5
4) O=[N+]([O-])c1cn2c(n1)OC[C@@H](OCc1ccc(OC(F)(F)F)cc1)C2 [PRETOMANID] :: 92.9
5) O=[N+]([O-])c1cn2c(n1)OC[C@@H](OCc1ccc(N3CCOCC3)cc1)C2 :: 39.4
6) O=C1CSCCN1c1ccc(CO[C@@H]2COc3nc([N+](=O)[O-])cn3C2)cc1F :: 77.6
7) O=[N+]([O-])c1cn2c(n1)OC[C@@H](OCc1ccc(N3CCCCC3)cc1)C2 :: 83
8) O=[N+]([O-])c1cn2c(n1)OC[C@@H](OCc1ccc(N3CCSCC3)cc1)C2 :: 74.5
9) O=C1COCCN1c1ccc(CO[C@@H]2COc3nc([N+](=O)[O-])cn3C2)cc1F :: 67.8
10) O=C1CCCCN1c1ccc(CO[C@@H]2COc3nc([N+](=O)[O-])cn3C2)cc1F :: 74.8

---

experiment: Apparent permeability from basolateral to apical side in human Caco2 cells; format: ADME, cell-based; settings: caco-2
Label key: fulfilled means Papp under 30 ×10⁻⁶ cm/s; not fulfilled means Papp of 30 ×10⁻⁶ cm/s or more.

1. O=[N+]([O-])c1cn2c(n1)OC[C@@H](OCc1ccc(N3CCSCC3)cc1)C2 :: fulfilled
2. O=[N+]([O-])c1cn2c(n1)OC[C@@H](OCc1ccc(N3CCCCC3)nc1)C2 :: fulfilled
3. O=[N+]([O-])c1cn2c(n1)OC[C@@H](OCc1ccc(N3CCSCC3)c(F)c1)C2 :: fulfilled
4. O=C1CSCCN1c1ccc(CO[C@@H]2COc3nc([N+](=O)[O-])cn3C2)cc1 :: not fulfilled
5. O=[N+]([O-])c1cn2c(n1)OC[C@@H](OCc1ccc(N3CCCCC3)c(F)c1)C2 :: fulfilled
6. O=C1COCCN1c1ccc(CO[C@@H]2COc3nc([N+](=O)[O-])cn3C2)cc1F :: not fulfilled
7. O=C1CCCCN1c1ccc(CO[C@@H]2COc3nc([N+](=O)[O-])cn3C2)cc1 :: not fulfilled
8. O=[N+]([O-])c1cn2c(n1)OC[C@@H](OCc1ccc(N3CCCCC3)cc1)C2 :: fulfilled
9. O=C1CSCCN1c1ccc(CO[C@@H]2COc3nc([N+](=O)[O-])cn3C2)cc1F :: not fulfilled
